# Run Description: Drug concentration in Lewis rat blood assessed as concentration of parent compound at 2 mg/kg, po measured at 4 hrs by LC-MS/MS analysis
# Assay type: ADME, organism-based
# Experimental Context: in vivo, 2 mg/kg, 4 h, 2 mg/kg, 4 h, read-out: Ct
Quantity Name: concentration (nM)

Note down concentration recorded for COCCCC1CCc2cc([C@H]3CC[C@](N)(CO)C3)ccc2C1 (stereo in doubt; 22b)
215

Note down concentration recorded for COCCCCCCC1CCc2cc([C@H]3CC[C@](N)(CO)C3)ccc2C1 (stereo in doubt; 25b)
320

Note down concentration recorded for COCCCCC1CCc2cc([C@H]3CC[C@](N)(CO)C3)ccc2C1 (stereo in doubt; 13b)
271
